RUN_DESCRIPTION: UV absorbance, molar absorptivity coefficients (ε) of the synthesized compounds
Format: physicochemical
CONDITIONS: at 314 nm
MEASUREMENT_NAME: experimental ε value (molar absorptivity coefficient) (L/mol/cm)
Give bare numbers, in L/mol/cm.

I would be grateful if you could share the reported experimental ε value (molar absorptivity coefficient) for CCCCCCCCCCCCCCCc1ccc2c(=O)c(O)c(-c3ccccc3)oc2c1 [Compound 13b] .
39900

###

RUN_DESCRIPTION: UV absorbance, molar absorptivity coefficients (ε) of the synthesized compounds
Type: physicochemical
CONDITIONS: at 254 nm
MEASUREMENT_NAME: ε value (molar absorptivity coefficient) (L/mol/cm)
Give bare numbers, in L/mol/cm.

I would be grateful if you could share the reported ε value (molar absorptivity coefficient) for CCCCCCCCCCCCCCCc1cc(O)c2c(=O)c3c(O)cccc3oc2c1 .
23800

###

RUN_DESCRIPTION: UV absorbance, molar absorptivity coefficients (ε) of the synthesized compounds
Assay type: physicochemical
CONDITIONS: at 282 nm
MEASUREMENT_NAME: experimental ε value (molar absorptivity coefficient) (L/mol/cm)
Give bare numbers, in L/mol/cm.

For the molecule shown here, CCCCCCCCCCCCCCCc1ccc(C(=O)c2ccccc2O)c(O)c1 , give the reported experimental ε value (molar absorptivity coefficient).
31700
